- System: HT-29
- assay-comment: In vitro tumor cell proliferation, HT-29
- Format: cell-based, human
- assay-conditions: HT-29; many values given with an undefined *; trihydrochloride; read-out: In vitro Tumor Cell Proliferation (IC50, μM) Colon HT-29
Structures can show the parent of a compound that is named as a salt.
test-readout: IC50

| molecule | IC50 |
| --- | --- |
| N[C@H]1CC[C@H](Nc2nc(NC3CCN(Cc4cc(Cl)cc(Cl)c4)CC3)c3ncn(C4CCCC4)c3n2)CC1 [Example 147-w, trihydrochloride] | 0.39 µM |

With those in mind, consider the next molecule.
Which value of IC50 has been reported for N[C@H]1CC[C@H](Nc2nc(NC3CCN(Cc4c(F)cccc4F)CC3)c3ncn(C4CCCC4)c3n2)CC1 [Example 147-v, trihydrochloride] in the records?
0.83 µM

* * *

- Test system: A549
- assay-comment: In vitro tumor cell proliferation, A549
- Format: cell-based, human
- assay-conditions: A549; many values given with an undefined *; trihydrochloride; read-out: In vitro Tumor Cell Proliferation (IC50, μM) Lung A549
Where a name gives a salt, the structure may show the parent alone.
Could you please mark condition met for values of IC50 below 0.3 µM and condition not met for values at or above it?

The examples below pair each entry with its known result.
| molecule | study-system | label |
| --- | --- | --- |
| N[C@H]1CC[C@H](Nc2nc(NC3CCN(Cc4ccc(F)cc4)CC3)c3ncn(C4CCCC4)c3n2)CC1 [Example 147-l, trihydrochloride] | A549 | condition met |
| N[C@H]1CC[C@H](Nc2nc(NC3CCN(Cc4c(F)cccc4F)CC3)c3ncn(C4CCCC4)c3n2)CC1 [Example 147-v, trihydrochloride] | A549 | condition not met |
| N[C@H]1CC[C@H](Nc2nc(NC3CCN(Cc4cccc(C(F)(F)F)c4)CC3)c3ncn(C4CCCC4)c3n2)CC1 [Example 147-m, trihydrochloride] | A549 | condition met |
| N[C@H]1CC[C@H](Nc2nc(NC3CCN(Cc4ccc(F)cc4Cl)CC3)c3ncn(C4CCCC4)c3n2)CC1 [Example 147-t, trihydrochloride] | A549 | condition met |
| N[C@H]1CC[C@H](Nc2nc(NC3CCN(Cc4ccc(Cl)cc4Cl)CC3)c3ncn(C4CCCC4)c3n2)CC1 [Example 147-x, trihydrochloride] | A549 | condition not met |

Attention now turns to another entry.
Is 0.3 µM strictly greater than the molecule's reported IC50? molecule: N[C@H]1CC[C@H](Nc2nc(NC3CCN(Cc4c(F)cccc4Cl)CC3)c3ncn(C4CCCC4)c3n2)CC1 [Example 147-n, trihydrochloride]
condition not met

* * *

- Tested on: MCF-7
- assay-comment: In vitro tumor cell proliferation, MCF-7
- Assay type: cell-based, human
- assay-conditions: Homo sapiens, MCF7, MCF-7; sulforhodamine B or CyQUANT assay; read-out: In vitro Tumor Cell Proliferation (IC50, μM) Breast MCF-7
Where a name gives a salt, the structure may show the parent alone.
Note to self: use 1 only for IC50 readings below 2 µM; a reading exactly at 2 µM still gets -1.

| molecule | label |
| --- | --- |
| COc1cc(CNc2nc(N[C@H]3CC[C@H](N)CC3)nc3c2ncn3C2CCCC2)cc(OC)c1 [Example 28, dihydrochloride] | -1 |
| N[C@H]1CC[C@H](Nc2nc(NCc3cccc(I)c3)c3ncn(C4C=CCC4)c3n2)CC1 (relative stereo) [Example 35, hydrochloride] | -1 |

# check: IC50 < 2 µM for COc1ccc(CNc2nc(N[C@H]3CC[C@H](N)CC3)nc3c2ncn3C2CCCC2)cc1OC [Example 34, dihydrochloride]
-1

Query Cn1cnc2c(NCc3ccccc3)nc(NCCO)nc21 [Olomoucine, reference compound] next
-1

Now give it for N[C@H]1CC[C@H](Nc2nc(NCc3ccc(C(F)(F)F)cc3)c3ncn(C4CCCC4)c3n2)CC1 [Example 1, dihydrochloride] too.
1
